List of normalized growth values.
TEST_NAME: chemical genetic growth profiling, strain panel (AID 1159580);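 further: tested at 20 µM; growth read once vehicle control cultures reached saturation at 30 °C; 1 = growth at the plate median or of vehicle wells; lower values mean less growth of the strain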
CONDITION_INFO: S. cerevisiae deletion strains, growth OD, locus YER167W, strain BCK2, stronger effect = lower value
Out of some 5,500 compounds screened, about 2,000 (36%) were called active. About 18% were inconclusive and are not listed. The list shows a part of the results.
The response must contain the number and no unit.

Look over these answered cases.
1. Cc1ccc(N(CC2=NCCN2)c2cccc(O)c2)cc1 ... 0.972
2. NC[C@H]1O[C@H](O[C@H]2C(O[C@@H]3O[C@H](CO)[C@@H](O)[C@H]3O)[C@@H](O)[C@H](N)C[C@@H]2N)[C@H](N)[C@@H](O)[C@@H]1O (some centres undefined) ... 1
3. NC[C@H]1O[C@H](O[C@H]2[C@H](O)[C@@H](O[C@H]3O[C@H](CO)[C@@H](O)[C@H](N)[C@H]3O)[C@H](N)C[C@@H]2N)[C@H](N)C[C@@H]1O ... 1.01

Field: next compound
Please give the measured normalized growth for this compound: COc1c2c(cc3c1OCO3)C13C=C[C@H](OC)CC1N(C2)CC3O (some centres undefined)
0.998

The measured values listed here are drawn from PubChem BioAssay AID1159580.
